Source: patent US12642768B2

Listed below: Particle size dispersity (PDI) values for each entry.
Assay comment: Particle size and PDI of lipid nanoparticles by dynamic light scattering
Format: physicochemical
Run conditions: LNP 50:38.5:10:1.5, N/P 6, luciferase mRNA
Experimental: […] The particle size and particle size dispersity index (PDI) of the prepared lipid nanoparticles were measured using a Zetasizer Pro (purchased from Malvern Instruments Ltd) and a DynaPro NanoStar (purchased from Wyatt) dynamic light scattering instrument. […] This parameter was measured by the method of Quant-it™ RiboGreen RNA Assay (purchased from Invitrogen). […]
Note: the reply should be a number with no unit written.

Before answering, review these 4 worked examples.
>>> endpoint_result("CCCCCCCC(CCCCCCC)COC(=O)CCC(C)(C)CCCC(CCCC(C)(C)CCC(=O)OCC(CCCCCCC)CCCCCCC)OC(=O)CCCN(C)C [Compound 129]")
0.06
>>> endpoint_result("CCCCCCCCCOC(=O)C(C)(C)CCCCCC(CCCCCC(C)(C)C(=O)SCCCCCCCCC)OC(=O)CCCN(C)C (stereo not drawn) [Compound 41]")
0.05
>>> endpoint_result("CCCCC/C=C\\C/C=C\\CCCCCCCCC(CCCCCCCC/C=C\\C/C=C\\CCCCC)OC(=O)CCCN(C)C [DLin-MC3-DMA, reference compound]")
0.04
>>> endpoint_result("CCCCCCCCCSC(=O)C(C)(C)CCCCCC(CCCCCC(C)(C)C(=O)OCC(CCCCC)CCCCCCC)OC(=O)CC1CCN(C)CC1 (stereo not drawn) [Compound 112]")
0.08

GET /values?readout=Particle size dispersity (PDI)&item= CCCCCCCC#CCOC(=O)C(C)(C)CCCCCC(CCCCCC(C)(C)C(=O)OCC(CCCCC)CCCCCCC)OC(=O)CCCN(C)C (stereo not drawn) [Compound 116]
0.05

GET /values?readout=Particle size dispersity (PDI)&item= CCCCCCCC#CCOC(=O)C(C)(C)CCCCCC(CCCCCC(C)(C)C(=O)OCCCC(CCCCC)CCCCC)OC(=O)CCCN(C)C (stereo not drawn) [Compound 115]
0.04
